# assayOverview: in vivo
# protocolConditions: male, Sprague-Dawley, rat, po, 100 mg/kg
assayMetric: Cmax (ng/mL)

* CC[C@H]1OC(=O)[C@H](C)[C@@H](O[C@H]2C[C@@](C)(OC)[C@@H](O)[C@H](C)O2)[C@H](C)[C@@H](O[C@@H]2O[C@H](C)C[C@H](N(C)C)[C@H]2O)[C@](C)(O)C[C@@H](C)C(=O)[C@H](C)[C@@H](O)[C@]1(C)O [Erythromycin, reference compound] | 2530

* * *

# assayOverview: in vivo
# protocolConditions: male, Sprague-Dawley, rat, po, 100 mg/kg
assayMetric: Tmax

* CC[C@H]1OC(=O)[C@H](C)[C@@H](O[C@H]2C[C@@](C)(OC)[C@@H](O)[C@H](C)O2)[C@H](C)[C@@H](O[C@@H]2O[C@H](C)C[C@H](N(C)C)[C@H]2O)[C@](C)(O)C[C@@H](C)C(=O)[C@H](C)[C@@H](O)[C@]1(C)O [Erythromycin, reference compound] | 2 h

* * *

# assayOverview: in vivo
# protocolConditions: male, Sprague-Dawley, rat, po, 100 mg/kg
assayMetric: AUC(0-inf)

* CC[C@H]1OC(=O)[C@H](C)[C@@H](O[C@H]2C[C@@](C)(OC)[C@@H](O)[C@H](C)O2)[C@H](C)[C@@H](O[C@@H]2O[C@H](C)C[C@H](N(C)C)[C@H]2O)[C@](C)(O)C[C@@H](C)C(=O)[C@H](C)[C@@H](O)[C@]1(C)O [Erythromycin, reference compound] | 7250 ng·h/mL

* * *

# Test system: THP-1 cell
# assayOverview: Cell viability (LD50) in THP-1 differentiation test
# Type: cell-based
# protocolConditions: human
assayMetric: LD50 (µM)

* CC[C@H]1OC(=O)[C@H](C)[C@@H](OC2CC(C)(OC)C(O)C(C)O2)[C@H](C)[C@@H](OC2CC(N(C)C)CC(C)O2)[C@@](C)(O)CC(C)[C@H](N)[C@H](C)[C@@H](O)[C@]1(C)O (stereo partly shown) [LY101-30] | 65.3
* CC[C@H]1OC(=O)[C@H](C)[C@@H](OC2CC(C)(OC)C(O)C(C)O2)[C@H](C)[C@@H](OC2CC(NC)CC(C)O2)[C@@](C)(O)C[C@@H](C)[C@H](O)[C@H](C)[C@@H](O)[C@]1(C)O (stereo partly shown) [LY101-31] | 115.0
* CC[C@H]1OC(=O)[C@H](C)[C@@H](OC2CC(C)(OC)C(O)C(C)O2)[C@H](C)[C@@H](OC2CC(N(C)C(C)C)CC(C)O2)[C@@](C)(O)C[C@@H](C)CN(C)[C@H](C)[C@@H](O)[C@]1(C)O (stereo partly shown) [LY101-47] | 64.7
* CC[C@H]1OC(=O)[C@H](C)[C@@H](O[C@H]2C[C@@](C)(OC)[C@@H](O)[C@H](C)O2)[C@H](C)[C@@H](O[C@H]2C[C@@H](NC)C[C@@H](C)O2)[C@@](C)(O)C[C@@H](C)C(=O)[C@H](C)[C@@H](O)[C@]1(C)O [LY101-25] | 21.1

* * *

# System: THP-1 cell
# assayOverview: Cell viability (LD50) in THP-1 differentiation test
# Type: cell-based
# protocolConditions: human
assayMetric: LD50 (µM)

- CC[C@H]1OC(=O)[C@H](C)[C@@H](O[C@H]2C[C@@](C)(OC)[C@@H](O)[C@H](C)O2)[C@H](C)[C@@H](O[C@H]2C[C@@H](N(C)C)C[C@@H](C)O2)[C@](C)(O)C[C@@H](C)C(=O)[C@H](C)[C@@H](O)[C@]1(C)O: 4.6
- CC[C@H]1OC(=O)[C@H](C)[C@@H](OC2CC(C)(OC)C(O)C(C)O2)[C@H](C)[C@@H](OC2CC(N(C)C(C)=O)CC(C)O2)[C@@](C)(O)C[C@@H](C)[C@H](O)[C@H](C)[C@@H](O)[C@]1(C)O (stereo partly drawn): 110.0
- CC[C@H]1OC(=O)[C@H](C)[C@@H](O)[C@H](C)[C@@H](OC2CC(N(C)C)CC(C)O2)[C@@](C)(O)C[C@@H](C)/C(=N\OCOCCOC)[C@H](C)[C@@H](O)[C@]1(C)O (stereo partly drawn): 100
- CC[C@H]1OC(=O)[C@H](C)[C@@H](OC2CC(C)(OC)C(O)C(C)O2)[C@H](C)[C@@H](OC2CC(N(C)C)CC(C)O2)[C@@](C)(O)C[C@@H](C)CN(C)[C@H](C)[C@@H](O)[C@]1(C)O (stereo partly drawn): 20.4
- CC[C@H]1OC(=O)[C@H](C)[C@@H](OC2CC(C)(OC)C(O)C(C)O2)[C@H](C)[C@@H](OC2CC(N(C)C(C)=O)CC(C)O2)[C@@](C)(O)C[C@@H](C)CN(C)[C@H](C)[C@@H](O)[C@]1(C)O (stereo partly drawn): 111.0
- CC[C@H]1OC(=O)[C@H](C)[C@@H](OC2CC(C)(OC)C(O)C(C)O2)[C@H](C)[C@@H](OC2CC(N(C)C)CC(C)O2)[C@@](C)(O)C[C@@H](C)[C@H](O)[C@H](C)[C@@H](O)[C@]1(C)O (stereo partly drawn): 24.2

* * *

# System: THP-1 cell
# assayOverview: Cell viability (LD50) in THP-1 differentiation test
# Assay type: cell-based
# protocolConditions: human
assayMetric: LD50 (µM)

* CC[C@H]1OC(=O)[C@H](C)[C@@H](OC2CC(C)(OC)C(O)C(C)O2)[C@H](C)[C@@H](OC2CC(N(C)C)CC(C)O2)[C@@](C)(O)C[C@@H](C)/C(=N\OCOCCOC)[C@H](C)[C@@H](O)[C@]1(C)O (some centres unmarked) [LY101-39] | 90.0
* CC[C@H]1OC(=O)[C@H](C)[C@@H](OC2CC(C)(OC)C(O)C(C)O2)[C@H](C)[C@@H](OC2CC(N(C)C(C)=O)CC(C)O2)C(C)(O)C[C@@H](C)C(=O)[C@H](C)[C@@H](O)[C@]1(C)O (stereo in doubt) [LY101-22] | 125

* * *

# Tested on: IL-8 expression in BEAS-2B cell
# assayOverview: LPS induced IL-8 release by BEAS-2B (ELISA)
# Format: cell-based
# protocolConditions: concentration inhibiting IL-8 production on BEAS-2B by 10%; LPS 20 μg/mL
Some molecules, each annotated with its measured IC10.
assayMetric: IC10 (µM)

* CC[C@H]1OC(=O)[C@H](C)[C@@H](O[C@H]2C[C@@](C)(OC)[C@@H](O)[C@H](C)O2)[C@H](C)[C@@H](O[C@H]2C[C@@H](NC)C[C@@H](C)O2)[C@@](C)(O)C[C@@H](C)C(=O)[C@H](C)[C@@H](O)[C@]1(C)O | 1
* CC[C@H]1OC(=O)[C@H](C)[C@@H](OC2CC(C)(OC)C(O)C(C)O2)[C@H](C)[C@@H](OC2CC(N(C)C)CC(C)O2)[C@@](C)(O)C[C@@H](C)/C(=N\OCOCCOC)[C@H](C)[C@@H](O)[C@]1(C)O (stereo partly shown) | 20
* CC[C@H]1OC(=O)[C@H](C)[C@@H](OC2CC(C)(OC)C(O)C(C)O2)[C@H](C)[C@@H](OC2CC(N(C)C(C)=O)CC(C)O2)[C@@]2(C)CC(C)=C(O2)[C@H](C)[C@@H](O)[C@]1(C)O (stereo partly shown) | 10
* CC[C@H]1OC(=O)[C@H](C)[C@@H](OC2CC(C)(OC)C(O)C(C)O2)[C@H](C)[C@@H](OC2CC(N(C)C(C)=O)CC(C)O2)[C@@](C)(O)C[C@@H](C)[C@H](O)[C@H](C)[C@@H](O)[C@]1(C)O (stereo partly shown) | 20
* CC[C@H]1OC(=O)[C@H](C)[C@@H](OC2CC(C)(OC)C(O)C(C)O2)[C@H](C)[C@@H](OC2CC(N(C)C(C)C)CC(C)O2)[C@@]2(C)CC(C)=C(O2)[C@H](C)[C@@H](O)[C@]1(C)O (stereo partly shown) | 10
* CC[C@H]1OC(=O)[C@H](C)[C@@H](OC2CC(C)(OC)C(O)C(C)O2)[C@H](C)[C@@H](OC2CC(N(C)C)CC(C)O2)[C@@](C)(O)C[C@@H](C)[C@H](O)[C@H](C)[C@@H](O)[C@]1(C)O (stereo partly shown) | 1
* CC[C@H]1OC(=O)[C@H](C)[C@@H](OC2CC(C)(OC)C(O)C(C)O2)[C@H](C)[C@@H](OC2CC(N(C)C(C)=O)CC(C)O2)C(C)(O)C[C@@H](C)C(=O)[C@H](C)[C@@H](O)[C@]1(C)O (stereo in doubt) | 10

* * *

# System: BEAS-2B cell
# assayOverview: Cell viability (LD10) in BEAS-2B IL-8 test
# Type: cell-based
# protocolConditions: BEAS-2B cell viability
assayMetric: LD10

- CC[C@H]1OC(=O)[C@H](C)[C@@H](OC2CC(C)(OC)C(O)C(C)O2)[C@H](C)[C@@H](OC2CC(N(C)C)CC(C)O2)[C@@](C)(O)C[C@@H](C)[C@H](O)[C@H](C)[C@@H](O)[C@]1(C)O (stereo partly shown) [LY101-45]: 15 µM
- CC[C@H]1OC(=O)[C@H](C)[C@@H](OC2CC(C)(OC)C(O)C(C)O2)[C@H](C)[C@@H](OC2CC(N(C)C(C)C)CC(C)O2)[C@@]2(C)CC(C)=C(O2)[C@H](C)[C@@H](O)[C@]1(C)O (stereo partly shown) [LY101-24]: 50 µM
- CC[C@H]1OC(=O)[C@H](C)[C@@H](O[C@H]2C[C@@](C)(OC)[C@@H](O)[C@H](C)O2)[C@H](C)[C@@H](O[C@H]2C[C@@H](NC)C[C@@H](C)O2)[C@@](C)(O)C[C@@H](C)C(=O)[C@H](C)[C@@H](O)[C@]1(C)O [LY101-25]: 15 µM
- CC[C@H]1OC(=O)[C@H](C)[C@@H](OC2CC(C)(OC)C(O)C(C)O2)[C@H](C)[C@@H](OC2CC(N(C)C(C)=O)CC(C)O2)[C@@]2(C)CC(C)=C(O2)[C@H](C)[C@@H](O)[C@]1(C)O (stereo partly shown) [LY101-27]: 100 µM
- CC[C@H]1OC(=O)[C@H](C)[C@@H](OC2CC(C)(OC)C(O)C(C)O2)[C@H](C)[C@@H](OC2CC(N(C)C(C)=O)CC(C)O2)[C@@](C)(O)C[C@@H](C)[C@H](O)[C@H](C)[C@@H](O)[C@]1(C)O (stereo partly shown) [LY101-33]: 60 µM
- CC[C@H]1OC(=O)[C@H](C)[C@@H](OC2CC(C)(OC)C(O)C(C)O2)[C@H](C)[C@@H](OC2CC(N(C)C(C)=O)CC(C)O2)C(C)(O)C[C@@H](C)C(=O)[C@H](C)[C@@H](O)[C@]1(C)O (stereo in doubt) [LY101-22]: 100 µM
- CC[C@H]1OC(=O)[C@H](C)[C@@H](OC2CC(C)(OC)C(O)C(C)O2)[C@H](C)[C@@H](OC2CC(N(C)C)CC(C)O2)[C@@](C)(O)C[C@@H](C)/C(=N\OCOCCOC)[C@H](C)[C@@H](O)[C@]1(C)O (stereo partly shown) [LY101-39]: 100 µM
